Would you kindly list #Cases >70% cell death for each of these compounds?
test system: relapsed AML cells; experiment: Drug sensitivity assay, 1,536-well, 3-day culture with individual approved drugs at 10 μM, viability by alamarBlue; type: cell-based, human; conditions: number of relapsed AML cases out of 18 tested with >70% cell death; 10 μM, 3-day culture
Answer field: number only, no words.

INPUT: # lookup: #Cases >70% cell death of CCCCOc1ccc(OCCCN2CCOCC2)cc1 [PRAMOXINE]
OUTPUT: 1

INPUT: Record request: #Cases >70% cell death value, item Cc1cccc(C)c1N=C1NCCCS1 [XYLAZINE]
OUTPUT: 4

INPUT: For the compound shown here, Clc1ccc(CO/N=C(\Cn2ccnc2)c2ccc(Cl)cc2Cl)c(Cl)c1 [OXICONAZOLE] , give the reported #Cases >70% cell death.
OUTPUT: 1

INPUT: Given the entry CCN(CC)CCN(Cc1ccc(-c2ccc(C(F)(F)F)cc2)cc1)C(=O)Cn1c(SCc2ccc(F)cc2)nc(=O)c2c1CCC2 [DARAPLADIB] , report its measured #Cases >70% cell death.
OUTPUT: 18

INPUT: I have this compound here, CN[C@@H]1[C@@H](O)[C@@H](O[C@@H]2[C@@H](O)[C@H](O[C@H]3OC(CN)=CC[C@H]3N)[C@@H](N)C[C@H]2N)OC[C@]1(C)O [SISOMICIN] , and I need its recorded #Cases >70% cell death.
OUTPUT: 10

---

system: relapsed AML cells; assay: Drug sensitivity assay, 1,536-well, 3-day culture with individual approved drugs at 10 μM, viability by alamarBlue; type: cell-based, human; conditions: number of relapsed AML cases out of 18 tested with >70% cell death; 10 μM, 3-day culture
Tick criterion met if #Cases >70% cell death is 7 or greater. Tick criterion not met if #Cases >70% cell death is less than 7.

INPUT: Item "O=c1[nH]cc(F)c(=O)[nH]1" with #Cases >70% cell death of 7 or above?
OUTPUT: criterion not met

INPUT: Item "Cc1ccc(Nc2nccc(N(C)c3ccc4c(C)n(C)nc4c3)n2)cc1S(N)(=O)=O" with #Cases >70% cell death of 7 or above?
OUTPUT: criterion not met

INPUT: For this compound, is measured #Cases >70% cell death 7 or higher? "C=CCNC1=C2C[C@@H](C)C[C@H](OC)[C@H](O)[C@@H](C)/C=C(\C)[C@H](OC(N)=O)[C@@H](OC)/C=C\C=C(/C)C(=O)NC(=CC1=O)C2=O"
OUTPUT: criterion met

INPUT: Tell me whether #Cases >70% cell death is at least 7 here: CCN(CC)CCNC(=O)c1c(C)[nH]c(/C=C2\C(=O)Nc3ccc(F)cc32)c1C [SUNITINIB MALATE]
OUTPUT: criterion met

INPUT: Quick check: does "CC[C@]1(O)C[C@H]2CN(CCc3c([nH]c4ccccc34)[C@@](C(=O)OC)(c3cc4c(cc3OC)N(C=O)[C@H]3[C@@](O)(C(=O)OC)[C@H](OC(C)=O)[C@]5(CC)C=CCN6CC[C@]43[C@@H]65)C2)C1" have #Cases >70% cell death greater than or equal to 7?
OUTPUT: criterion met

---

test system: relapsed AML cells; assay: Drug sensitivity assay, 1,536-well, 3-day culture with individual approved drugs at 10 μM, viability by alamarBlue; type: cell-based, human; settings: number of relapsed AML cases out of 18 tested with >70% cell death; 10 μM, 3-day culture
Would you kindly list #Cases >70% cell death for each of these compounds?

INPUT: GET /values?readout=#Cases >70% cell death&item= "FC(F)(F)c1ccc(/C=C/c2nc(COc3ccc(CCCCn4ccnn4)cc3)co2)cc1"
OUTPUT: 1

INPUT: Which value of #Cases >70% cell death has been reported for C[C@@H]1O[C@@H](O[C@H]2C[C@@H](O)[C@]3(CO)[C@H]4[C@H](O)C[C@]5(C)[C@@H](C6=CC(=O)OC6)CC[C@]5(O)[C@@H]4CC[C@]3(O)C2)[C@H](O)[C@H](O)[C@H]1O.O.O.O.O.O.O.O.O [STROPHANTINE OCTAHYDRATE] in the records?
OUTPUT: 18

INPUT: Quick check: #Cases >70% cell death of "CCN(CC)CCOc1ccc(C(=C(Cl)c2ccccc2)c2ccccc2)cc1" ?
OUTPUT: 10
